We begin with a simple list: items and their reported DC50.
- TEST_SYSTEM: BTK (Homo sapiens)
- Construct: High control=Cell group with added DMSO and without compound, indicating microplate readings without BTK degradation; endogenous in cells; host or cells: TMD-8
- Sequence (Q06187 whole entry): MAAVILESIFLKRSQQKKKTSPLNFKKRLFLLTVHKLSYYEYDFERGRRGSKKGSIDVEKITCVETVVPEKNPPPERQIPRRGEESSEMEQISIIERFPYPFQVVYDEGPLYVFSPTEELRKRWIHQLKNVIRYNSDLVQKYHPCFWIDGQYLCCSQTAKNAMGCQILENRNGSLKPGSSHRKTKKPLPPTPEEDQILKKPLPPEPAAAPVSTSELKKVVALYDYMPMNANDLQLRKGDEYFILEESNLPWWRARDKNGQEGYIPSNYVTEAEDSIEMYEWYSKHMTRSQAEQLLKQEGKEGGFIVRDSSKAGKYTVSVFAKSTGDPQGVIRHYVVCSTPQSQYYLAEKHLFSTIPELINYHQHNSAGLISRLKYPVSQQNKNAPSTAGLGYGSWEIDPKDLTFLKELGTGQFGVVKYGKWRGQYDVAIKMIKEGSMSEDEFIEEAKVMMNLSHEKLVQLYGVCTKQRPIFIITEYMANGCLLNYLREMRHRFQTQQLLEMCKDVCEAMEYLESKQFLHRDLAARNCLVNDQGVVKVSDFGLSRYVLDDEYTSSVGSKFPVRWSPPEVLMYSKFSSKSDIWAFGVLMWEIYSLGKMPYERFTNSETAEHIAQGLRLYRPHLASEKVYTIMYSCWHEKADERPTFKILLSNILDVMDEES
- ASSAY_PROTOCOL: BTK degradation in TMD-8 cells (HTRF assay)
- Type: cell-based
- COND: 6 h treatment, IC50 (DC50) of BTK degradation

MOLECULE | DC50 / nM
Cc1cc(-c2ncnc3[nH]c4cc(N5CCN([C@H]6C[C@@H](c7ccc(N[C@H]8CCC(=O)NC8=O)cc7)C6)CC5)ccc4c23)ccc1[C@@H](C)NC(=O)c1nc(C2(C)CC2)no1 [Example 120] | 1.25
CC(C)(C)c1noc(C(=O)N[C@@H]2CCc3cc(-c4ncnc5[nH]c6cc(N7CCN(CC8CCN(c9ccc(N%10CCC(=O)NC%10=O)cc9)CC8)CC7)ccc6c45)ccc32)n1 [Example 37] | 57.6
COc1cc2c(cc1N1CCN(Cc3ccc4c(c3)C(C)(C)C(=O)N4C3CCC(=O)NC3=O)CC1)[nH]c1ncnc(-c3ccc([C@@H](C)NC(=O)c4nc(C5(C)CC5)no4)c(C)c3)c12 (some centres unmarked) [Example 74] | 2.04
COc1cc2c(cc1N1CCN(CC3CCN(c4ccc(N5CCC(=O)NC5=O)cc4)CC3)CC1)[nH]c1ncnc(-c3ccc([C@@H](C)NC(=O)c4nc(C(C)(C)C)no4)c(C)c3)c12 [Example 46] | 0.366
Cc1cc(-c2ncnc3[nH]c4cc(N5CCN(C6CC(c7ccc(C8CCC(=O)NC8=O)cc7)C6)CC5)ccc4c23)ccc1[C@@H](C)NC(=O)c1nc(C(C)(C)C)no1 (some centres unmarked) [Example 15] | 0.616
